- run-description: Hematology assays in cynomolgus monkeys (Example 45)
- Type: in vivo
- measurement-conditions: day −14
The entries below come with measured reticulocytes values attached.
Output spec: scalar in %, unitless text.

Use the examples below as a reference point.
substance	measurement-units	reticulocytes
ISIS 416858: MOE gapmer, nucleobases 1275 to 1318 of SEQ ID NO: 1 (Table 8) (antisense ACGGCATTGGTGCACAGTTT; MOE gapmer, wing and gap sizes not given here)	%	1.0
ISIS 416838: MOE gapmer, nucleobases 1018 to 1042 of SEQ ID NO: 1 (Table 6) (antisense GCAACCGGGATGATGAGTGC; MOE gapmer, wing and gap sizes not given here)	%	1.0
ISIS 416864: MOE gapmer, nucleobases 1275 to 1318 of SEQ ID NO: 1 (Table 8) (antisense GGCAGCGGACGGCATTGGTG; MOE gapmer, wing and gap sizes not given here)	%	0.9
ISIS 416850: MOE gapmer, nucleobases 1275 to 1318 of SEQ ID NO: 1 (Table 8) (antisense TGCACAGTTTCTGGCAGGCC; MOE gapmer, wing and gap sizes not given here)	%	1.7

Problem: Please report the recorded reticulocytes for ISIS 417002: MOE gapmer, nucleobases 1275 to 1318 of SEQ ID NO: 1 (Table 8) (antisense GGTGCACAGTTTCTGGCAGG; MOE gapmer, wing and gap sizes not given here) .
Result: 0.9

---

- run-description: Liver function, ALT, AST, bilirubin in cynomolgus monkeys (Example 45)
- Format: in vivo
- measurement-conditions: plasma; day 43; escalating dose regimen
measured-parameter: AST
Write the numeric value and follow it with the unit.

Use the examples below as a reference point.
substance	AST
ISIS 416858: MOE gapmer, nucleobases 1275 to 1318 of SEQ ID NO: 1 (Table 8) (antisense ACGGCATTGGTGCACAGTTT; MOE gapmer, wing and gap sizes not given here)	39 IU/L
ISIS 417002: MOE gapmer, nucleobases 1275 to 1318 of SEQ ID NO: 1 (Table 8) (antisense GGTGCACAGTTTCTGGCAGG; MOE gapmer, wing and gap sizes not given here)	42 IU/L
ISIS 416850: MOE gapmer, nucleobases 1275 to 1318 of SEQ ID NO: 1 (Table 8) (antisense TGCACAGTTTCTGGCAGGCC; MOE gapmer, wing and gap sizes not given here)	50 IU/L
ISIS 416838: MOE gapmer, nucleobases 1018 to 1042 of SEQ ID NO: 1 (Table 6) (antisense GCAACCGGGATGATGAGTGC; MOE gapmer, wing and gap sizes not given here)	32 IU/L

Could you now consider this next substance?
Problem: Please report the recorded AST for ISIS 416864: MOE gapmer, nucleobases 1275 to 1318 of SEQ ID NO: 1 (Table 8) (antisense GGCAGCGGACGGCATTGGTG; MOE gapmer, wing and gap sizes not given here) .
Result: 40 IU/L

---

The entries below come with measured Albumin values attached.
- measurement-conditions: rat, in vivo, sc, 50 mg/kg
e = 2'-O-(2-methoxyethyl) (MOE); d = 2'-deoxy (DNA)
Keep it simple and answer with nothing but the number.

Use the examples below as a reference point.
substance	Albumin
ISIS 412225: 5-10-5 MOE gapmer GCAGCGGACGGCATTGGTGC (sugars from the 5' end e5 d10 e5, backbone and methylation of C not given here)	5
ISIS 416867: MOE gapmer, nucleobases 1275 to 1318 of SEQ ID NO: 1 (Table 8) (antisense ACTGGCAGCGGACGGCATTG; MOE gapmer, wing and gap sizes not given here)	4

Could you now consider this next substance?
Problem: Please report the recorded Albumin for ISIS 413482: 5-10-5 MOE gapmer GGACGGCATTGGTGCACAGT (sugars from the 5' end e5 d10 e5, backbone and methylation of C not given here) .
Result: 4

---

- measurement-conditions: rat, in vivo, sc, 50 mg/kg
e = 2'-O-(2-methoxyethyl) (MOE); d = 2'-deoxy (DNA)
measured-parameter: AST (IU/L)
Output spec: scalar in IU/L, unitless text.

Use the examples below as a reference point.
substance	AST [IU/L]
ISIS 416861: MOE gapmer, nucleobases 1275 to 1318 of SEQ ID NO: 1 (Table 8) (antisense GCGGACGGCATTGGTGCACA; MOE gapmer, wing and gap sizes not given here)	154
ISIS 416866: MOE gapmer, nucleobases 1275 to 1318 of SEQ ID NO: 1 (Table 8) (antisense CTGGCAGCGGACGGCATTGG; MOE gapmer, wing and gap sizes not given here)	78
ISIS 416851: MOE gapmer, nucleobases 1275 to 1318 of SEQ ID NO: 1 (Table 8) (antisense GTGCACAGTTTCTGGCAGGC; MOE gapmer, wing and gap sizes not given here)	91
ISIS 413482: 5-10-5 MOE gapmer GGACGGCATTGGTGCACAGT (sugars from the 5' end e5 d10 e5, backbone and methylation of C not given here)	157

Could you now consider this next substance?
Problem: Please report the recorded AST for ISIS 416848: MOE gapmer, nucleobases 1275 to 1318 of SEQ ID NO: 1 (Table 8) (antisense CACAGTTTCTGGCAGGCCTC; MOE gapmer, wing and gap sizes not given here) .
Result: 236

---

- run-description: Hematology assays in cynomolgus monkeys (Example 46)
- Assay type: in vivo
- measurement-conditions: Day-5
Strand notation (5' to 3'): a small letter for the sugar, then the base; units joined by * are phosphorothioate-linked, units joined directly phosphodiester-linked; [ ] holds rarer units or linkages, { } end groups; capitals alone tell only the bases. e = 2'-O-(2-methoxyethyl) (MOE); [5mC] = 5-methylcytosine; d = 2'-deoxy (DNA)
measured-parameter: MCHC (g/dL)
Output spec: scalar in g/dL, unitless text.

Use the examples below as a reference point.
substance	MCHC / g/dL
ISIS 449708: 3-8-3, 4-8-4, 2-10-2, 3-10-3 or 4-10-4 MOE microwalk gapmer (Table 46) (antisense eA*e[5mC]*eA*dG*dT*dT*dT*d[5mC]*dT*dG*dG*e[5mC]*eA*eG)	30.2
ISIS 449707: 3-8-3, 4-8-4, 2-10-2, 3-10-3 or 4-10-4 MOE microwalk gapmer (Table 46) (antisense e[5mC]*eA*e[5mC]*eA*dG*dT*dT*dT*d[5mC]*dT*dG*dG*e[5mC]*eA*eG*eG)	29.8
ISIS 449711: 3-8-3, 4-8-4, 2-10-2, 3-10-3 or 4-10-4 MOE microwalk gapmer (Table 46) (antisense eA*e[5mC]*dA*dG*dT*dT*dT*d[5mC]*dT*dG*dG*d[5mC]*eA*eG)	30.7
ISIS 416858: MOE gapmer, nucleobases 1275 to 1318 of SEQ ID NO: 1 (Table 8) (antisense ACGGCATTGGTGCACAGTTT; MOE gapmer, wing and gap sizes not given here)	29.8
ISIS 445531: 5-8-5 or 6-8-6 MOE microwalk gapmer (Table 44) (antisense eG*eG*e[5mC]*eA*eT*dT*dG*dG*dT*dG*d[5mC]*dA*d[5mC]*eA*eG*eT*eT*eT)	30.0

Problem: Please report the recorded MCHC for ISIS 449709: 3-8-3, 4-8-4, 2-10-2, 3-10-3 or 4-10-4 MOE microwalk gapmer (Table 46) (antisense eG*e[5mC]*eA*e[5mC]*dA*dG*dT*dT*dT*d[5mC]*dT*dG*dG*d[5mC]*eA*eG*eG*e[5mC]) .
Result: 30.3

Problem: Field entry: ISIS 416850: MOE gapmer, nucleobases 1275 to 1318 of SEQ ID NO: 1 (Table 8) (antisense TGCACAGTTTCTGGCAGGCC; MOE gapmer, wing and gap sizes not given here)
Result: 30.7

Problem: Field entry: ISIS 445522: 5-8-5 or 6-8-6 MOE microwalk gapmer (Table 44) (antisense eG*e[5mC]*eA*e[5mC]*eA*dG*dT*dT*dT*d[5mC]*dT*dG*dG*e[5mC]*eA*eG*eG*e[5mC])
Result: 30.4

Problem: Field entry: ISIS 449710: 3-8-3, 4-8-4, 2-10-2, 3-10-3 or 4-10-4 MOE microwalk gapmer (Table 46) (antisense e[5mC]*eA*e[5mC]*dA*dG*dT*dT*dT*d[5mC]*dT*dG*dG*d[5mC]*eA*eG*eG)
Result: 29.7

---

The entries below come with measured hematocrit values attached.
- run-description: Hematology assays in cynomolgus monkeys (Example 45)
- Format: in vivo
- measurement-conditions: day 22; escalating dose regimen
Output spec: scalar in %, unitless text.

Use the examples below as a reference point.
substance	value-reported
ISIS 416864: MOE gapmer, nucleobases 1275 to 1318 of SEQ ID NO: 1 (Table 8) (antisense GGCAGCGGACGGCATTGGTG; MOE gapmer, wing and gap sizes not given here)	42
ISIS 417002: MOE gapmer, nucleobases 1275 to 1318 of SEQ ID NO: 1 (Table 8) (antisense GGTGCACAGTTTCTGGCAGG; MOE gapmer, wing and gap sizes not given here)	41
ISIS 416858: MOE gapmer, nucleobases 1275 to 1318 of SEQ ID NO: 1 (Table 8) (antisense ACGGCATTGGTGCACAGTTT; MOE gapmer, wing and gap sizes not given here)	41
ISIS 416850: MOE gapmer, nucleobases 1275 to 1318 of SEQ ID NO: 1 (Table 8) (antisense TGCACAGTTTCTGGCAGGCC; MOE gapmer, wing and gap sizes not given here)	41

Could you now consider this next substance?
Problem: Please report the recorded hematocrit for ISIS 416838: MOE gapmer, nucleobases 1018 to 1042 of SEQ ID NO: 1 (Table 6) (antisense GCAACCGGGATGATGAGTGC; MOE gapmer, wing and gap sizes not given here) .
Result: 43

Hello, the source for this data is patent US20230263822A1, in case you need it.
